molecular target: human orexin-2 receptor (Homo sapiens (Human)); assay: FLIPR Ca2+ Flux Assay, hOX2R; settings: CHO cells expressing the receptor; agonist Ala-6,12 human orexin-A
pIC50: −log10 of the molar value.
EXPERIMENTAL_READOUT: pIC50

SMILES: C[C@@H]1CC[C@@H](c2nsc(C(C)(C)O)n2)CN1C(=O)c1ccccc1-n1nccn1
EXPERIMENTAL_READOUT: pIC50
NUMERIC_VALUE: 7.57
//
SMILES: C[C@@H]1CC[C@@H](c2nsc(C(C)(C)O)n2)CN1C(=O)c1ccccc1-n1ncnn1
EXPERIMENTAL_READOUT: pIC50
NUMERIC_VALUE: 6.47
//
SMILES: C[C@@H]1CC[C@@H](c2nc(C(C)(C)C)no2)CN1C(=O)c1ccccc1-n1nccn1
EXPERIMENTAL_READOUT: pIC50
NUMERIC_VALUE: 7.06
//
SMILES: COC(=O)c1ccccc1C(=O)N1C[C@H](c2noc(C(C)(C)O)n2)CC[C@H]1C
EXPERIMENTAL_READOUT: pIC50
NUMERIC_VALUE: 7.01

====

Quick list: IC50 per entry.
target: hOX1R (orexin-1 receptor) (Homo sapiens); test: FLIPR Ca2+ Flux Assay, hOX1R; settings: CHO cells expressing the receptor; agonist Ala-6,12 human orexin-A
EXPERIMENTAL_READOUT: IC50

SMILES: C[C@@H]1CC[C@@H](c2nc(C(C)(C)C)no2)CN1C(=O)c1ccccc1-n1nccn1
RESULT: 1.15 µM
//
SMILES: C[C@@H]1CC[C@@H](c2nsc(C(C)(C)O)n2)CN1C(=O)c1ccccc1OC(F)(F)F
RESULT: 6.38 µM
//
SMILES: C[C@@H]1CC[C@@H](c2noc([C@H](O)C(F)(F)F)n2)CN1C(=O)c1ccccc1-n1nccn1
RESULT: 0.456 µM
//
SMILES: C[C@@H]1CC[C@@H](c2noc([C@@H](O)C(F)(F)F)n2)CN1C(=O)c1ccccc1-n1nccn1
RESULT: 1.01 µM
//
SMILES: CC(C)c1nc([C@@H]2CC[C@@H](C)N(C(=O)c3ccccc3-n3nccn3)C2)no1
RESULT: 0.699 µM
//
SMILES: C[C@@H]1CC[C@@H](c2noc(C(C)(C)O)n2)CN1C(=O)c1cscc1-n1nccn1
RESULT: > 10 µM
//
SMILES: C[C@@H]1CC[C@@H](c2noc(C(C)(C)O)n2)CN1C(=O)c1ccccc1-n1nccn1
RESULT: 3.18 µM
//
SMILES: C[C@@H]1CC[C@@H](c2noc([C@](C)(O)C(F)(F)F)n2)CN1C(=O)c1ccccc1-n1nccn1
RESULT: 0.288 µM
//
SMILES: C[C@@H]1CC[C@@H](c2nsc(C(C)(C)O)n2)CN1C(=O)c1cscc1-n1nccn1
RESULT: > 10 µM
//
SMILES: C[C@@H]1CC[C@@H](c2nsc(C(C)(C)O)n2)CN1C(=O)c1ccsc1-n1nccn1
RESULT: > 10 µM
//
SMILES: C[C@@H]1CC[C@@H](c2nsc(C(C)(C)O)n2)CN1C(=O)c1ccccc1CS(C)(=O)=O
RESULT: > 10 µM
//
SMILES: COC(=O)c1ccccc1C(=O)N1C[C@H](c2noc(C(C)(C)O)n2)CC[C@H]1C
RESULT: > 10 µM
//
SMILES: CC(C)Oc1ncccc1C(=O)N1C[C@H](c2noc(C(C)(C)O)n2)CC[C@H]1C
RESULT: > 10 µM
//
SMILES: C[C@@H]1CC[C@@H](c2noc(C(C)(C)O)n2)CN1C(=O)c1ccccc1-c1ncccn1
RESULT: > 10 µM
//
SMILES: C[C@@H]1CC[C@@H](c2noc(C(C)(C)O)n2)CN1C(=O)c1cscc1-c1ncccn1
RESULT: > 10 µM
//
SMILES: CCOc1ccccc1C(=O)N1C[C@H](c2nsc(C(C)(C)O)n2)CC[C@H]1C
RESULT: > 10 µM
//
SMILES: C[C@@H]1CC[C@@H](c2nsc(C(C)(C)O)n2)CN1C(=O)c1ccccc1-n1nccn1
RESULT: 2.38 µM
//
SMILES: C[C@@H]1CC[C@@H](c2noc(C3CC3)n2)CN1C(=O)c1ccccc1-n1nccn1
RESULT: > 10 µM
//
SMILES: C[C@@H]1CC[C@@H](c2noc(C(C)(C)O)n2)CN1C(=O)c1cccnc1OCC(F)(F)F
RESULT: > 10 µM
//
SMILES: CC(C)Oc1ncccc1C(=O)N1C[C@H](c2nsc(C(C)(C)O)n2)CC[C@H]1C
RESULT: > 10 µM
//
SMILES: C[C@@H]1CC[C@@H](c2noc(C(C)(C)O)n2)CN1C(=O)c1ccccc1OC(F)F
RESULT: > 10 µM
//
SMILES: COC(C)(C)c1nc([C@@H]2CC[C@@H](C)N(C(=O)c3ccccc3-n3nccn3)C2)ns1
RESULT: 1.41 µM
//
SMILES: CCc1nc([C@@H]2CC[C@@H](C)N(C(=O)c3ccccc3-n3nccn3)C2)no1
RESULT: > 10 µM
//
SMILES: C[C@@H]1CC[C@@H](c2noc(C(C)(C)O)n2)CN1C(=O)c1ccc(F)cc1-n1nccn1
RESULT: > 10 µM
//
SMILES: C[C@@H]1CC[C@@H](c2nsc(C(C)(C)O)n2)CN1C(=O)c1ccccc1-c1ncccn1
RESULT: > 10 µM
//
SMILES: C[C@@H]1CC[C@@H](c2noc([C@@](C)(O)C(F)(F)F)n2)CN1C(=O)c1ccccc1-n1nccn1
RESULT: 2.24 µM
//
SMILES: CCOc1ccccc1C(=O)N1C[C@H](c2noc(C(C)(C)O)n2)CC[C@H]1C
RESULT: > 10 µM
//
SMILES: C[C@@H]1CC[C@@H](c2noc(C(C)(C)O)n2)CN1C(=O)c1ccsc1-c1ncccn1
RESULT: > 10 µM
//
SMILES: C[C@@H]1CC[C@@H](c2nc(C3CC3)no2)CN1C(=O)c1ccccc1-n1nccn1
RESULT: > 10 µM
//
SMILES: COC(C)(C)c1nc([C@@H]2CC[C@@H](C)N(C(=O)c3ccccc3-n3nccn3)C2)no1
RESULT: 3.7 µM
//
SMILES: C[C@@H]1CC[C@@H](c2nc(C(C)(C)O)no2)CN1C(=O)c1ccccc1-n1nccn1
RESULT: > 10 µM

====

target: hOX1R (orexin-1 receptor) (Homo sapiens); assay: FLIPR Ca2+ Flux Assay, hOX1R; conditions: CHO cells expressing the receptor; agonist Ala-6,12 human orexin-A
pIC50: −log10 of the molar value.

SMILES: C[C@@H]1CC[C@@H](c2nsc(C(C)(C)O)n2)CN1C(=O)c1ccsc1-c1ncccn1
ASSAYED_SYSTEM: hOX1R (orexin-1 receptor) (Homo sapiens)
pIC50: 5.00

SMILES: C[C@@H]1CC[C@@H](c2noc(C(C)(C)C)n2)CN1C(=O)c1ccccc1-n1nccn1
ASSAYED_SYSTEM: hOX1R (orexin-1 receptor) (Homo sapiens)
pIC50: 6.29

SMILES: C[C@@H]1CC[C@@H](c2nsc(C(C)(C)O)n2)CN1C(=O)c1ccccc1C1(C#N)CC1
ASSAYED_SYSTEM: hOX1R (orexin-1 receptor) (Homo sapiens)
pIC50: 5.62

====

target: hOX1R (orexin-1 receptor) (Homo sapiens); assay: FLIPR Ca2+ Flux Assay, hOX1R; details: CHO cells expressing the receptor; agonist Ala-6,12 human orexin-A
EXPERIMENTAL_READOUT: IC50

SMILES: C[C@@H]1CC[C@@H](c2noc(C(C)(C)O)n2)CN1C(=O)c1ccsc1-n1nccn1
ASSAYED_SYSTEM: hOX1R (orexin-1 receptor) (Homo sapiens)
RESULT: > 10 µM

SMILES: C[C@@H]1CC[C@@H](c2noc(C(C)(C)O)n2)CN1C(=O)c1ccccc1C1(C#N)CC1
ASSAYED_SYSTEM: hOX1R (orexin-1 receptor) (Homo sapiens)
RESULT: 2.29 µM

SMILES: C[C@@H]1CC[C@@H](c2nsc(C(C)(C)O)n2)CN1C(=O)c1ccccc1OC(F)F
ASSAYED_SYSTEM: hOX1R (orexin-1 receptor) (Homo sapiens)
RESULT: > 10 µM

SMILES: C[C@@H]1CC[C@@H](c2noc(C(C)(C)O)n2)CN1C(=O)c1ccccc1OC(F)(F)F
ASSAYED_SYSTEM: hOX1R (orexin-1 receptor) (Homo sapiens)
RESULT: > 10 µM

SMILES: C[C@@H]1CC[C@@H](c2nsc(C(C)(C)O)n2)CN1C(=O)c1ccccc1-n1ncnn1
ASSAYED_SYSTEM: hOX1R (orexin-1 receptor) (Homo sapiens)
RESULT: > 10 µM

====

Below, each entry is listed alongside its reported IC50.
Biological target: human orexin-2 receptor (Homo sapiens (Human), UniProt O43614)
Sequence (O43614 whole entry): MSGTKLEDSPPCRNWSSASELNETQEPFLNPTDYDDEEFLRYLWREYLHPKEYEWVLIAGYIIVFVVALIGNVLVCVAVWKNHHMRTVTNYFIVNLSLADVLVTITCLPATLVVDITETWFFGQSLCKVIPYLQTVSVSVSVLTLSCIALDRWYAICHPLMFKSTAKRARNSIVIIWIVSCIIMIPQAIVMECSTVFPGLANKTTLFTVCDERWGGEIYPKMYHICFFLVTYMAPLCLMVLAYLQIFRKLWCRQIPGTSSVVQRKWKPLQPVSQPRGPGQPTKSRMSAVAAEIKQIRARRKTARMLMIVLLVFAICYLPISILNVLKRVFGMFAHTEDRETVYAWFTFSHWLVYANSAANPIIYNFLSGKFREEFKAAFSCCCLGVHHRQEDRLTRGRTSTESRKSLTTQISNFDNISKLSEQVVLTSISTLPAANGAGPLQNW
Assay: FLIPR Ca2+ Flux Assay, hOX2R
Details: CHO cells expressing the receptor; agonist Ala-6,12 human orexin-A
Description: The utility of the compounds in accordance with the present invention as orexin receptor OX1R and/or OX2R antagonists may be readily determined without undue experimentation by methodology well known in the art, including the “FLIPR Ca^2+ Flux Assay” (Okumura et al., Biochem. Biophys. Res. Comm. 280:976-981, 2001). In a typical experiment the OX1 and OX2 receptor antagonistic activity of the compounds of the present invention was determined in accordance with the following experimental method. […]

SMILES: C[C@@H]1CC[C@@H](c2noc(C(C)(C)O)n2)CN1C(=O)c1ccsc1-n1nccn1
IC50 [µM]: 0.039
//
SMILES: C[C@@H]1CC[C@@H](c2noc(C(C)(C)O)n2)CN1C(=O)c1ccccc1-c1ncccn1
IC50 [µM]: 0.063
//
SMILES: C[C@@H]1CC[C@@H](c2nsc(C(C)(C)O)n2)CN1C(=O)c1ccccc1-c1ncccn1
IC50 [µM]: 0.048
//
SMILES: C[C@@H]1CC[C@@H](c2noc(C(C)(C)O)n2)CN1C(=O)c1ccccc1C1(C#N)CC1
IC50 [µM]: 0.022
//
SMILES: CCOc1ccccc1C(=O)N1C[C@H](c2noc(C(C)(C)O)n2)CC[C@H]1C
IC50 [µM]: 0.124
//
SMILES: C[C@@H]1CC[C@@H](c2noc(C(C)(C)C)n2)CN1C(=O)c1ccccc1-n1nccn1
IC50 [µM]: 0.029
//
SMILES: CC(C)c1nc([C@@H]2CC[C@@H](C)N(C(=O)c3ccccc3-n3nccn3)C2)no1
IC50 [µM]: 0.028
//
SMILES: C[C@@H]1CC[C@@H](c2noc(C(C)(C)O)n2)CN1C(=O)c1cscc1-n1nccn1
IC50 [µM]: 0.048
//
SMILES: C[C@@H]1CC[C@@H](c2nsc(C(C)(C)O)n2)CN1C(=O)c1ccccc1OC(F)F
IC50 [µM]: 0.243
//
SMILES: C[C@@H]1CC[C@@H](c2noc(C(C)(C)O)n2)CN1C(=O)c1cscc1-c1ncccn1
IC50 [µM]: 0.076
//
SMILES: C[C@@H]1CC[C@@H](c2noc([C@H](O)C(F)(F)F)n2)CN1C(=O)c1ccccc1-n1nccn1
IC50 [µM]: 0.022
//
SMILES: C[C@@H]1CC[C@@H](c2nsc(C(C)(C)O)n2)CN1C(=O)c1cccnc1OCC(F)(F)F
IC50 [µM]: 0.124
//
SMILES: C[C@@H]1CC[C@@H](c2noc(C(C)(C)O)n2)CN1C(=O)c1ccccc1-n1ncnn1
IC50 [µM]: 0.184
//
SMILES: CCOc1ccccc1C(=O)N1C[C@H](c2nsc(C(C)(C)O)n2)CC[C@H]1C
IC50 [µM]: 0.146
//
SMILES: C[C@@H]1CC[C@@H](c2nsc(C(C)(C)O)n2)CN1C(=O)c1ccccc1CS(C)(=O)=O
IC50 [µM]: 0.194
//
SMILES: C[C@@H]1CC[C@@H](c2nc(C(C)(C)O)no2)CN1C(=O)c1ccccc1-n1nccn1
IC50 [µM]: 0.075
//
SMILES: C[C@@H]1CC[C@@H](c2noc(C(C)(C)O)n2)CN1C(=O)c1cccnc1OCC(F)(F)F
IC50 [µM]: 0.087
//
SMILES: C[C@@H]1CC[C@@H](c2noc(C(C)(C)O)n2)CN1C(=O)c1ccccc1OC(F)(F)F
IC50 [µM]: 0.086
//
SMILES: CC(C)Oc1ncccc1C(=O)N1C[C@H](c2noc(C(C)(C)O)n2)CC[C@H]1C
IC50 [µM]: 0.219
//
SMILES: C[C@@H]1CC[C@@H](c2noc(C(C)(C)O)n2)CN1C(=O)c1ccc(F)cc1-n1nccn1
IC50 [µM]: 0.044
//
SMILES: CCc1nc([C@@H]2CC[C@@H](C)N(C(=O)c3ccccc3-n3nccn3)C2)no1
IC50 [µM]: 0.315
//
SMILES: C[C@@H]1CC[C@@H](c2nsc(C(C)(C)O)n2)CN1C(=O)c1ccsc1-n1nccn1
IC50 [µM]: 0.088
//
SMILES: C[C@@H]1CC[C@@H](c2nsc(C(C)(C)O)n2)CN1C(=O)c1ccccc1OC(F)(F)F
IC50 [µM]: 0.053
//
SMILES: CC(C)c1noc([C@@H]2CC[C@@H](C)N(C(=O)c3ccccc3-n3nccn3)C2)n1
IC50 [µM]: 0.124
//
SMILES: C[C@@H]1CC[C@@H](c2noc(C3CC3)n2)CN1C(=O)c1ccccc1-n1nccn1
IC50 [µM]: 0.329
//
SMILES: C[C@@H]1CC[C@@H](c2noc([C@](C)(O)C(F)(F)F)n2)CN1C(=O)c1ccccc1-n1nccn1
IC50 [µM]: 0.018
//
SMILES: COC(C)(C)c1nc([C@@H]2CC[C@@H](C)N(C(=O)c3ccccc3-n3nccn3)C2)no1
IC50 [µM]: 0.098
//
SMILES: C[C@@H]1CC[C@@H](c2nsc(C(C)(C)O)n2)CN1C(=O)c1cscc1-n1nccn1
IC50 [µM]: 0.11
